# Test system: Low density cholesterol (Chl small) plaque particles
# Assay procedure: Mass spectroscopy proteomics, semi-quantitative binding affinity of serum proteins (plaqueproteome, Table 2)
# Design: species or system human
# Condition set: higher number = stronger affinity
# Procedure: The goal was to isolate plaque particles synthesized in the bio-fluids in a relatively pure form to enable their subsequent use for identification of components that contribute to the plaque formation. […] All MS/MS samples were analyzed using Sequest (Thermo Fisher Scientific, San Jose, Calif., USA; version 1.0). […]
Measured attribute: Semi-quantitative analysis of proteins binding to different plaque particles: Chl small
Output: the number by itself.

Molecule | Quantitative result
Selenoprotein P (protein) ESQDQSSLCKQPPAWSIRDQDPMLNSNGSVTVVALLQASUYLCILQASKLEDLRVKLKKEGYSNISYIVVNHQGISSRLKYTHLKNKVSEHIPVYQQEENQTDVWTLLNGSKDDFLIYDRCGRLVYHLGLPFSFLTFPYVEEAIKIAYCEKKCGNCSLTTLKDEDFCKRVSLATVDKTVETPSPHYHHEHHHNHGHQHLGSSELSENQQPGAPNAPTHPAPPGLHHHHKHKGQHRQGHPENRDMPASEDLQDLQKKLCRKRCINQLLCKLPTDSELAPRSUCCHCRHLIFEKTGSAITUQCKENLPSLCSUQGLRAEENITESCQURLPPAAUQISQQLIPTEASASURUKNQAKKUEUPSN | 0

Now for another entry.
get_value(item= Peroxiredoxin-1 (protein) SSGNAKIGHPAPNFKATAVMPDGQFKDISLSDYKGKYVVFFFYPLDFTFVCPTEIIAFSDRAEEFKKLNCQVIGASVDSHFCHLAWVNTPKKQGGLGPMNIPLVSDPKRTIAQDYGVLKADEGISFRGLFIIDDKGILRQITVNDLPVGRSVDETLRLVQAFQFTDKHGEVCPAGWKPGSDTIKPDVQKSKEYFSKQK , readout=Semi-quantitative analysis of proteins binding to different plaque particles: Chl small) returns 0
